inhibition overview
procedure.summary: antagonists of CRF-BP/CRF-R2 complex, primary screen, cell-based, HEK293, calcium dye fluorescence, uHTS (AID 588475)
condition.parameters: CRF-induced calcium fluorescence, at 11.8 µM, stronger effect = higher value
The campaign covered roughly 350,000 compounds. About 2,100 (0.6%) were called active. The entries come from a sample that favours actives as a whole.
State the answer as a number, implicitly in %.

INSERT INTO measurements (molecule, unit_info, numeric_value) VALUES
  ('CCCc1cc(=O)n2[nH]c(C)c(-c3ccc(Cl)cc3)c2n1', '%', 13.7),
  ('O=C(Nc1cccc(C(=O)O)c1)/C(=C\c1ccccc1)NC(=O)c1ccc(Br)o1', '%', 12.3),
  ('Cc1[nH]n(-c2cccc(Cl)c2)c(=O)c1-c1ccc(Cl)cc1', '%', 50.6);

# next molecule below
State the recorded inhibition for this entry: OCC1OC(n2cnc3c(N4CCCC4)ncnc32)C(O)C1O (stereo unspecified)
-7.64
